Target: hAM1R (human, UniProt Q16602)
Assay: cell-based or functional assay
Numbered stars: 1 amine (or outer) side, 2 acyl side, 3 side chain; on linkers, the order of the positions; unused ones are H or OH. Bridge positions count the residues as written; N and C are the ends. Square brackets hold non-standard residues; d marks the D form. Ends that are not written are not given here. * marks the point of attachment. C20 diacid = O=C(O)CCCCCCCCCCCCCCCCCCC(=O)*; γGlu = O=C(O)[C@H](CCC(=O)[*:2])N[*:1]; Hyp = O=C(O)[C@@H]1C[C@@H](O)CN1; Cit = NC(=O)NCCC[C@H](N)C(=O)O

binder: GCRTGTCTVQRLAHQIYQFTDKDKDNVAPRSKVSPNG[Hyp]-NH2 (disulfide 2-7 (inferred); ends not checked) [SEQ ID NO: 204]
hAM1R EC50 (cAMP): 2.98 µM

binder: GCRFGTCTVQWLAHQIYQFTDKDKDNVAPRTNIGPNG[Hyp]-NH2 (disulfide 2-7 (inferred); ends not checked) [SEQ ID NO: 331]
hAM1R EC50 (cAMP): 3.57 µM

binder: GCRTGTCTVQWLAHQIYQFTDKDKDNVAPRTKIGPNG[Hyp]-NH2 (disulfide 2-7 (inferred); ends not checked) [SEQ ID NO: 339]
hAM1R EC50 (cAMP): > 5 µM

binder: {C20 diacid-γGlu}-KCNFATCTVQRLAHQIYQFTDKDKDNVAPPTEVGSNG[Hyp]-NH2 (disulfide 2-7 (inferred); not fully specified; ends not checked) [SEQ ID NO: 68]
hAM1R EC50 (cAMP): 0.255 µM

binder: GCRTGTCTVQRLAHQIYQFTDKDKDNVAPRSNIGPQG[Hyp]-NH2 (disulfide 2-7 (inferred); ends not checked) [SEQ ID NO: 165]
hAM1R EC50 (cAMP): 2.98 µM

binder: GCRTGTCTVQRLAHQIYQFTNKDKDNVAPRSKISPQH[Hyp]-NH2 (disulfide 2-7 (inferred); ends not checked) [SEQ ID NO: 219]
hAM1R EC50 (cAMP): 4.25 µM

binder: GCRFGTCTVQRLAHQIYQFTDKDKDNVAPRTNISPNGY [SEQ ID NO: 366]
hAM1R EC50 (cAMP): 0.0121 µM

binder: GCRIGTCTVQRLAHQIYQFTNKDKDNVAPRSKISPQT[Hyp]-NH2 (disulfide 2-7 (inferred); ends not checked) [SEQ ID NO: 198]
hAM1R EC50 (cAMP): 3.96 µM

binder: GCRFGTCTVQRLAHFLYQFTDKDKDNVAPRTKIGSNGY [SEQ ID NO: 376]
hAM1R EC50 (cAMP): 0.012 µM

binder: {C20 diacid-γGlu}-KCNTSTCTVQRLAHQIYQFTDKDKDNVAPPTNVGSNG[Hyp]-NH2 (disulfide 2-7 (inferred); ends not checked) [SEQ ID NO: 50]
hAM1R EC50 (cAMP): > 5 µM

binder: KCNTATCTVQRLAHQIYQFDKDKDNVAPPTNVGSNG[Hyp]-NH2 (disulfide 2-7 (inferred); ends not checked) [SEQ ID NO: 65]
hAM1R EC50 (cAMP): > 5 µM

binder: GCRFGTCTVQRLANFLYQFTDKDKDNVAPRTNVGPQGY [SEQ ID NO: 16]
hAM1R EC50 (cAMP): 0.125 µM

binder: KCNTATCTVQWLAHQIYQFTDKAKDNVAPPTNVGSNG[Hyp]-NH2 (disulfide 2-7 (inferred); ends not checked) [SEQ ID NO: 320]
hAM1R EC50 (cAMP): > 5 µM

binder: GCRTGTCTVQWLAHQIYQFTDKDKDNVAPRTNVGPQG[Hyp]-NH2 (disulfide 2-7 (inferred); ends not checked) [SEQ ID NO: 323]
hAM1R EC50 (cAMP): > 5 µM

binder: {C20 diacid-γGlu}-KCNTATCTVQRLAEQIYQFTDKAKDNVAPPTNVGSNG[Hyp]-NH2 (disulfide 2-7 (inferred); ends not checked) [SEQ ID NO: 122]
hAM1R EC50 (cAMP): > 5 µM

binder: {C20 diacid-γGlu}-KCATATCTVQRLAEQIYQFTDKDKDNVAPPTNVGSNG[Hyp]-NH2 (disulfide 2-7 (inferred); not fully specified; ends not checked) [SEQ ID NO: 97]
hAM1R EC50 (cAMP): > 5 µM

binder: KCNTATCTVQ[Cit]LAHQIYQFTKDKDNVAPPTNVGSNG[Hyp]-NH2 (disulfide 2-7 (inferred); ends not checked) [SEQ ID NO: 253]
hAM1R EC50 (cAMP): > 5 µM

binder: GCRTGTCTVQRLAHQIYQFTDKDKDNVAPRSKVGPQG[Hyp]-NH2 (disulfide 2-7 (inferred); ends not checked) [SEQ ID NO: 187]
hAM1R EC50 (cAMP): 2.98 µM

Source listed as patent US12139520B2.
